System: EC-1, mouse virulent strain of Escherichia coli
Format: cell-based
Conditions: E. coli EC-1; overnight incubation, lower of duplicate values; trifluoroacetate salt (Example 1 and PMB sulfate)
Description: Minimum bactericidal concentration (MBC, mg/L), minimum inhibitory concentration (MIC, mg/L), and human renal proximal tubule epithelial cell line cytotoxicity concentration 50% (hRPTEC, TC50, micromolar) for compounds of Formula I are listed in Table 2. […] The in vitro antibacterial activity of compounds of Formula I was evaluated by MIC testing according to Clinical and Laboratory Standards Institute (CLSI). […]
Bridge positions count the residues as written; N and C are the ends. Square brackets hold non-standard residues; d marks the D form. Peptide text beside a SMILES is read from it. * marks the point of attachment. Quinoline3carbonyl = O=C(c1cnc2ccccc2c1)*; X9 = N#Cc1ccc(-c2cc(C(=O)*)ccc2F)nc1; X30 = O=C(c1ccc(Cl)c(-c2ccccc2)c1)*; X12 = O=C(c1cccc(-c2ccccc2F)c1)*; X28 = O=C(c1ccc(Oc2ccccc2)nc1)*; Dab = NCC[C@H](N)C(=O)O; Dap = NC[C@H](N)C(=O)O
endpoint label: EC-1 MIC (µg/mL)
Express your answer in µg/mL, writing the number without its unit.

State its EC-1 MIC: CC(C)C[C@@H]1NC(=O)[C@@H](Cc2ccccc2)NC(=O)[C@H](CCN)NC(=O)[C@@H](NC(=O)[C@H](CN)NC(=O)[C@@H](NC(=O)[C@H](CCN)NC(=O)c2ccc(Oc3ccccc3)nc2)[C@@H](C)O)CCNC(=O)[C@H]([C@@H](C)O)NC(=O)[C@H](CCN)NC(=O)[C@H](CCN)NC1=O [Example 12] (X28-[Dab]T[Dap][Dab][Dab][dF]L[Dab][Dab]T; lactam 4-C)
0.25

Provide measured EC-1 MIC value, entry: CC(C)C[C@@H]1NC(=O)[C@@H](Cc2ccccc2)NC(=O)[C@H](CCN)NC(=O)[C@@H](NC(=O)[C@H](CN)NC(=O)[C@@H](NC(=O)[C@H](CCN)NC(=O)c2ccc(Cl)c(-c3ccccc3)c2)[C@@H](C)O)CCNC(=O)[C@H]([C@@H](C)O)NC(=O)[C@H](CCN)NC(=O)[C@H](CCN)NC1=O [Example 10] (X30-[Dab]T[Dap][Dab][Dab][dF]L[Dab][Dab]T; lactam 4-C)
0.25

Complete the entry with EC-1 MIC for CC(C)C[C@@H]1NC(=O)[C@@H](Cc2ccccc2)NC(=O)[C@H](CCN)NC(=O)[C@@H](NC(=O)[C@H](CN)NC(=O)[C@@H](NC(=O)[C@H](CCN)NC(=O)c2cccc(-c3ccccc3F)c2)[C@@H](C)O)CCNC(=O)[C@H]([C@@H](C)O)NC(=O)[C@H](CCN)NC(=O)[C@H](CCN)NC1=O [Example 9] (X12-[Dab]T[Dap][Dab][Dab][dF]L[Dab][Dab]T; lactam 4-C)
0.25

Please report EC-1 MIC for the following molecule: CC(C)C[C@@H]1NC(=O)[C@@H](Cc2ccccc2)NC(=O)[C@H](CCN)NC(=O)[C@@H](NC(=O)[C@H](CN)NC(=O)[C@@H](NC(=O)[C@H](CCN)NC(=O)c2ccc(F)c(-c3ccc(C#N)cn3)c2)[C@@H](C)O)CCNC(=O)[C@H]([C@@H](C)O)NC(=O)[C@H](CCN)NC(=O)[C@H](CCN)NC1=O [Example 24] (X9-[Dab]T[Dap][Dab][Dab][dF]L[Dab][Dab]T; lactam 4-C)
0.25

Tell us which EC-1 MIC value is on record for CC(C)C[C@@H]1NC(=O)[C@@H](Cc2ccccc2)NC(=O)[C@H](CCN)NC(=O)[C@@H](NC(=O)[C@H](CN)NC(=O)[C@@H](NC(=O)[C@H](CCN)NC(=O)c2cnc3ccccc3c2)[C@@H](C)O)CCNC(=O)[C@H]([C@@H](C)O)NC(=O)[C@H](CCN)NC(=O)[C@H](CCN)NC1=O [Example 23] (Quinoline3carbonyl-[Dab]T[Dap][Dab][Dab][dF]L[Dab][Dab]T; lactam 4-C)
0.125
